Source: patent US20090318431A1

- Test system: S. pneumoniae SV1 SP-3
- PROTOCOL NOTES: in vitro antibacterial activity (MIC), S. pneumoniae
- Type: cell-based
- CONDITION CONTEXT: Streptococcus pneumoniae, SV1SP3, strain SV1 SP-3, lowest concentration preventing macroscopically visible growth
VALUE TYPE: MIC (µg/mL)

Example entries begin here.
# QUERY SMILES, MIC (µg/mL)
measured = [
    ("CNC(=O)[C@H]1CN(c2ccc3c(c2)CCOC(=O)N3C)C(=O)O1", 32),
    ("CC(=O)NC[C@H]1CN(c2cc(F)c3c(c2)COC(=O)N3C)C(=O)O1", 2),
    ("CCC(=O)NC[C@H]1CN(c2cc(F)c3c(c2)COC(=O)N3C)C(=O)O1", 4),
    ("CNC(=O)[C@H]1CN(c2cc(F)c3c(c2)COC(=O)N3C)C(=O)O1", 8),
    ("CNC(=O)[C@H]1CN(c2ccc3c(c2)COC(=O)N3C)C(=O)O1", 4),
    ("CN1C(=O)OCc2cc(N3C[C@H](C(N)=O)OC3=O)ccc21", 4),
]

P: CCC(=O)NC[C@H]1CN(c2ccc3c(c2)COC(=O)N3C)C(=O)O1
Q: CN1C(=O)OCc2cc(N3C[C@H](C(N)=O)OC3=O)cc(F)c21
R: CN1C(=O)OCc2cc(N3C[C@H](CNC(=O)OCF)OC3=O)ccc21
Put the compounds in ascending order of MIC. Sort and list the labels as requested. R, P, Q
(R: 2 µg/mL, P: 4 µg/mL, Q: 16 µg/mL)
